- Tested System: Met(Y1248C)(h) (Homo sapiens, UniProt P08581, Y1230C)
- Experiment Summary: Kinase Profiling Assay
- Assay type: biochemical
- Condition Context: 100 μM peptide
Assay Metric: Met(Y1248C)(h) % activity (%)
Answer format: numeric, % implied, no suffix.

Some solved cases for reference:
>>> numeric_readout("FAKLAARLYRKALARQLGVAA [MMI-0300]")
84
>>> numeric_readout("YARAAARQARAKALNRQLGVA (Mammalian) [MMI-0200]")
141
>>> numeric_readout("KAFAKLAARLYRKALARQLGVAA [MMI-0400]")
36

Turning now to a further record.
Met(Y1248C)(h) % activity for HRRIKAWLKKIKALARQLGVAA (Mammalian) [MMI-0500] ?
73
